system: P388 leukemia ip, CD2F1 mice, survival T/C; assay: NCI In Vivo Anticancer Drug Screen. Data for tumor model P388 Leukemia (intraperitoneal) in CD2F1 (CDF1) mice; details: endpoint: median survival time; dose: 200.0 mg/kg/injection; schedule: Q01DX005 (ip); vehicle: saline with Tween-80; higher = longer survival
Toxic doses and inconclusive results are not listed.
Parameter T/C: see the listing below.

Consider the reported T/C for these molecules:
molecule	attributeMeasured	observedMeasurement
CC(C)(C)OC(=O)N1CCCC1C1=N/C(=C\c2ccccc2)C(=O)O1 (stereo unspecified)	T/C	105 % of control
COC(=O)C1CCOCCCOCCCOCCCOCCCOCCCC1=O (stereo unspecified)	T/C	100 % of control
O=C(NC(Cc1ccc(OC(=O)OCc2ccccc2)cc1)C(=O)O)OCc1ccccc1 (stereo unspecified)	T/C	101 % of control
Clc1cc(Cl)c2c(c1)[nH]c1nc3ccccc3nc12	T/C	104 % of control
CCCCN(CCCC)CC(N=O)c1cc(-c2ccc(Cl)c(Cl)c2)nc2c(Cl)cc(Cl)cc12 (stereo unspecified)	T/C	107 % of control

// field: T/C; key: O=C(Nc1nnc(-c2ccccc2)s1)c1cc(=O)c2cc([N+](=O)[O-])ccc2o1 ; value = 96 % of control

response.value for CN(C)N1C(=O)C(C(=O)Nc2cccc3ccccc23)SC1=S (stereo unspecified) (field: T/C) = 103 % of control

The origin of these recorded values is PubChem BioAssay AID330.
